experiment: Single intravenous dose escalation of P5P, plasma pharmacokinetics (Examples Two and Three); format: in vivo, human; settings: both sexes, human, plasma, iv, 1 mg/kg, Group 1, P5P 1 mg/kg single iv; plasma PAL; mean
property measured: Tmax (min)
Enter your answer as a number in min; do not include the unit.

May I ask what Tmax has been recorded for Cc1ncc(CO)c(C=O)c1O ?
27.6

====

test: Single intravenous dose escalation of P5P, plasma pharmacokinetics (Examples Two and Three); type: in vivo, human; details: both sexes, human, plasma, iv, 1 mg/kg, Group 1, P5P 1 mg/kg single iv; plasma P5P; mean; read-out: T½ (converted)
property measured: half-life (h)
Answer with a number only, understood to be in h.

Suppose we examine the compound Cc1ncc(COP(=O)(O)O)c(C=O)c1O [P5P, Pyridoxal 5′-phosphate, reference compound] ; what half-life value has been reported?
5.11

====

assay: Single intravenous dose escalation of P5P, plasma pharmacokinetics (Examples Two and Three); assay type: in vivo, human; settings: both sexes, human, plasma, iv, 1 mg/kg, Group 1, P5P 1 mg/kg single iv; plasma P5P; mean
property measured: Cmax (ng/mL)
Numbers only; they are read as ng/mL.

Any idea what its Cmax is? The compound is Cc1ncc(COP(=O)(O)O)c(C=O)c1O [P5P, Pyridoxal 5′-phosphate, reference compound]
20000

====

experiment: clinical; design: species or system human; conditions: human, in vivo, iv, 10 mg/kg, MRT
Item-by-item account of MRT
The figure you give is taken to be in h; do not add the unit.

• Cc1ncc(CO)c(C=O)c1O = 4.06
• Cc1ncc(CO)c(C(=O)O)c1O = 3.85

Let us examine a further case.
What value of MRT has been reported for the following molecule? Cc1ncc(COP(=O)(O)O)c(C=O)c1O [P5P, Pyridoxal 5′-phosphate, reference compound]
3.4

====

Assay: Single intravenous dose escalation of P5P, plasma pharmacokinetics (Examples Two and Three)
Format: in vivo, human
Conditions: both sexes, human; Group 4, P5P 20 mg/kg single iv; plasma PAL; mean
Description: A phase one clinical trial was conducted to compare the pharmacokinetics of intravenously administered P5P and orally administered P5P. The trial was a single dose escalation study. […] P5P, pyridoxal, and 4-pyridoxic acid were evaluated in both plasma and urine over a 24 hour interval following either intravenous or oral dosing. […] Concentrations of pyridoxal-5′-phosphate (P5P) were measured from the plasma samples collected over a 24-bour interval after dosing in each phase. […]
property measured: AUC(0-inf) (ng·h/mL)
Answer format: numeric, ng·h/mL implied, no suffix.

So what's the measured AUC(0-inf) for this one? Cc1ncc(CO)c(C=O)c1O [PAL, pyridoxal]
95200

====

experiment: Single intravenous dose escalation of P5P, plasma pharmacokinetics (Examples Two and Three); assay type: in vivo, human; conditions: both sexes, human, plasma, iv, 5 mg/kg, Group 2, P5P 5 mg/kg single iv; plasma P5P; mean; read-out: T½ (converted)
property measured: half-life (h)
Express the result in h but write the number alone.

Look up half-life: Cc1ncc(COP(=O)(O)O)c(C=O)c1O [P5P, Pyridoxal 5′-phosphate, reference compound]
5.89

====

experiment: Single intravenous dose escalation of P5P, plasma pharmacokinetics (Examples Two and Three); type: in vivo, human; details: both sexes, human, plasma, iv, 10 mg/kg, Group 3, P5P 10 mg/kg single iv; plasma PAL; mean
property measured: Cmax (ng/mL)
Unit ng/mL implied. Number only.

Name the reported Cmax value associated with the compound Cc1ncc(CO)c(C=O)c1O
13300
